- targetSystem: Glycogen synthase kinase-3 beta (Homo sapiens)
- Sequence (P49841 whole entry): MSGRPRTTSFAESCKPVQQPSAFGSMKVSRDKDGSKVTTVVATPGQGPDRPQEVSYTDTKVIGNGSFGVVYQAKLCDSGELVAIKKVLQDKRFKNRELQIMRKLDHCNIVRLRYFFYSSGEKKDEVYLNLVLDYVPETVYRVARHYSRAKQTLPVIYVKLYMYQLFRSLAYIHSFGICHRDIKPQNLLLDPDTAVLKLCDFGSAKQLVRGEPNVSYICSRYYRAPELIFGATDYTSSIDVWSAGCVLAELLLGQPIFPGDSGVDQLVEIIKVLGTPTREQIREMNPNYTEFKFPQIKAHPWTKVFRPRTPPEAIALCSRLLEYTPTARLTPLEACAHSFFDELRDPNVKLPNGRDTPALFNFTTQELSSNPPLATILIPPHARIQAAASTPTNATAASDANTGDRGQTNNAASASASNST
- test: Inhibition of recombinant human GSK3beta using prephosphorylated polypeptide as substrate preincubated for 30 mins followed by addition of kinase-glo stop solution measured after 10 mins by Kinase-Glo luminescence assay
quantityMeasured: pIC50
# pIC50 is unitless: minus log10 of the molar concentration; print number only

What the record says about NC1=NC(c2ccc(F)cc2)NC(=O)N1 (stereo unspecified) : pIC50 is 4.83

* * *

- targetSystem: Beta-secretase 1 (Homo sapiens, UniProt P56817)
- Sequence (P56817 whole entry): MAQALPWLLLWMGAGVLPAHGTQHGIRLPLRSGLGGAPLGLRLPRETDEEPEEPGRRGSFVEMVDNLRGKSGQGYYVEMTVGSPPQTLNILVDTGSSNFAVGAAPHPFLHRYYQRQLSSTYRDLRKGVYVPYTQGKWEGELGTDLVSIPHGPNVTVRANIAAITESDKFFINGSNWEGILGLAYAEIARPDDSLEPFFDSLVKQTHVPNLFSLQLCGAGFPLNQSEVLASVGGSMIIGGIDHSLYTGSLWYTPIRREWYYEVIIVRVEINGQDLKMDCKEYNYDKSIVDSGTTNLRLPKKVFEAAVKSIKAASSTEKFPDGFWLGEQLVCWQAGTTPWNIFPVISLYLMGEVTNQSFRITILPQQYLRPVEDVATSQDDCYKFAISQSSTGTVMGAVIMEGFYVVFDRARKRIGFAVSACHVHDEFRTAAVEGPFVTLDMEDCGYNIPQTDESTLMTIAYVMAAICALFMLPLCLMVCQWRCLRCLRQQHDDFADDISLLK
quantityMeasured: IC50
Returns: string containing the number followed by the unit.

Field IC50 (Beta-secretase 1 (Homo sapiens, UniProt P56817)), entry CC#Cc1cncc(-c2ccc3c(c2)[C@]2(CO3)N=C(N)C[C@@H]2C(F)(F)F)c1 : 115 nM

* * *

- targetSystem: Beta-secretase 1 (Homo sapiens)
- test: Inhibition of human BACE-1 preincubated for 1 hr followed by substrate addition measured after 60 mins by FRET assay
quantityMeasured: pIC50
# pIC50 is unitless: minus log10 of the molar concentration; print number only

These recorded examples may help you get a feel for the data.
* O=C1CSC2(CCN(CCCN3c4ccccc4Sc4ccc(Cl)cc43)CC2)N1 | 5.18
* OC1=C2Nc3ccccc3N=C2OC1c1c[nH]c2ccc(COc3ccccc3)cc12 (stereo not drawn) | 5.74

Moving on to the next compound.
What the record says about CC1Cc2ccc(OC(=O)c3ccc(NC(=N)N)cc3)cc2OC1=O (stereo not drawn) : pIC50 is 5.82
